- TARGET: GST-LXRα-LBD (human LXR alpha, aa 164 to 447) (Homo sapiens)
- Construct: human LXR alpha (aa 164 to 447); made in house; host or cells: E. coli BL21(pLysS)
- Sequence (Q13133 164-447): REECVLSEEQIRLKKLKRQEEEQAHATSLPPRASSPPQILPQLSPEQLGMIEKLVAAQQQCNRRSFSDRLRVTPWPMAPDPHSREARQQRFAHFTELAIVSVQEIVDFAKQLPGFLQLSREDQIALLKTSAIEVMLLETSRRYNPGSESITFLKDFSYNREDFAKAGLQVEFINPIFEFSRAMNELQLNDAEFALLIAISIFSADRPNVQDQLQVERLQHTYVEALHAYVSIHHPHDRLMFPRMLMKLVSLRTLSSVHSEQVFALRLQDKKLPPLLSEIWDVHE
- ASSAY_NOTES: Radioligand binding assay (SPA), LXR alpha
- TEST_CONTEXT: GST-LXRα-LBD on SPA beads, read-out: LXRalpha Binding IC50
PROPERTY_MEASURED: IC50 (nM)
Numeric only. Scale: nM

Request: Which measured IC50 belongs to Cc1nn(C)c(Cl)c1S(=O)(=O)N(CC(F)(F)F)[C@H]1CC[C@H](C(O)(C(F)(F)F)C(F)(F)F)CC1 [Example 17] , tested on GST-LXRα-LBD (human LXR alpha, aa 164 to 447) (Homo sapiens)?
Response: 1500
